Measured values drawn from patent US8173133B2 for this set.

# Test system: bone marrow stem cells
# ASSAY EXPLANATION: bone marrow stem cell proliferation (XTT)
# Type: cell-based, C57/BL6 mice
# CONDITIONS USED: 7 days, XTT 492 nm
MEASURE: Max amplitude
Please make sure the unit comes right after the number.

[[record]]
compound_smiles = "CCCCCCCCCCCC(=O)O[C@H](CCCCCCCCCCC)CC(=O)N[C@H](CC(=O)O)C(=O)NCCC[C@H](CO)NC(=O)C[C@H](O)CCCCCCCCCCC"
readout_value = "1.75 O.D"


Here's the next entry for you.
Which Max amplitude is reported for this compound? CCCCCCCCCCCC(=O)O[C@H](CCCCCCCCCCC)CC(=O)N[C@H](CC(=O)O)C(=O)NCCC[C@H](COC(=O)CCCCCNC(=O)CCC(=O)OC[C@@H]1C=C[C@H](n2cc(C)c(=O)[nH]c2=O)O1)NC(=O)C[C@H](O)CCCCCCCCCCC 1.40 O.D

* * *

# Test system: bone marrow stem cells
# ASSAY EXPLANATION: bone marrow stem cell proliferation (XTT)
# Format: cell-based, C57/BL6 mice
# CONDITIONS USED: concentration at maximum amplitude
MEASURE: Max concentration (µg/mL)
Write the value in µg/mL as a bare number.

Below: 3 compounds and their reported Max concentration.
[[record]]
compound = "CCCCCCCCCCCC(=O)O[C@H](CCCCCCCCCCC)CC(=O)N[C@H](CC(=O)N[C@@H](CCCCN)C(=O)O)C(=O)NCCC[C@H](CO)NC(=O)C[C@H](O)CCCCCCCCCCC"
measure = "Max concentration"
readout_value = 25

[[record]]
compound = "CCCCCCCCCCCC(=O)O[C@H](CCCCCCCCCCC)CC(=O)N[C@H](CC(=O)O)C(=O)NCCC[C@H](COC(=O)CCCCCN)NC(=O)C[C@H](O)CCCCCCCCCCC"
measure = "Max concentration"
readout_value = 50

[[record]]
compound = "CCCCCCCCCCCC(=O)O[C@H](CCCCCCCCCCC)CC(=O)N[C@H](CC(=O)O)C(=O)NCCC[C@H](COC(=O)CCC(=O)O)NC(=O)C[C@H](O)CCCCCCCCCCC"
measure = "Max concentration"
readout_value = 50


Next:
GET /values?readout=Max concentration&item= CCCCCCCCCCCC(=O)O[C@H](CCCCCCCCCCC)CC(=O)NC(CCOP(=O)(O)O)C(=O)NCCCC(COC(=O)CCCCC(O)CO)NC(=O)C[C@H](O)CCCCCCCCCCC (some centres unmarked) 50

* * *

The reader will find LAL EU/mg of product measurements below, all made with Limulus Amoebocyte Lysate.

Examples with answers:
[[record]]
compound = "CCCCCCCCCCC[C@@H](O)CC(=O)N[C@H](CCCNC(=O)[C@@H](CC(=O)O)NC(C)=O)COC(=O)CCCCCN"
readout_value = "<0.5 EU/mg of product"

[[record]]
compound = "CCCCCCCCCCCC(=O)O[C@H](CCCCCCCCCCC)CC(=O)N[C@H](CC(=O)O)C(=O)NCCC[C@H](COC(=O)CCCCCO)NC(=O)C[C@H](O)CCCCCCCCCCC"
readout_value = "<0.05 EU/mg of product"


Give the reported LAL EU/mg of product for CCCCCCCCCCCC(=O)O[C@H](CCCCCCCCCCC)CC(=O)N[C@H](CC(=O)N[C@@H](CCCCN)C(=O)O)C(=O)NCCC[C@H](CO)NC(=O)C[C@H](O)CCCCCCCCCCC (system: Limulus Amoebocyte Lysate). 3 EU/mg of product

# query: LAL EU/mg of product | item CCCCCCCCCCCC(=O)O[C@H](CCCCCCCCCCC)CC(=O)N[C@H](CC(=O)O)C(=O)NCCC[C@H](COC(=O)CCCCC(O)CO)NC(=O)C[C@H](O)CCCCCCCCCCC (some centres unmarked) | system: Limulus Amoebocyte Lysate 49.3 EU/mg of product

Identify the measured LAL EU/mg of product of CCCCCCCCCCC[C@@H](O)CC(=O)N[C@H](CCCNC(=O)[C@@H](CC(=O)O)NC(=O)C(CCCCCC)OC(=O)CCCCCCCCC)COC(=O)CCCCCN (some centres unmarked) for Limulus Amoebocyte Lysate. <0.5 EU/mg of product

* * *

# Tested on: MT-4 cells
# ASSAY EXPLANATION: cytotoxicity on virus-free MT-4 cells (MTT)
# Assay type: cell-based
MEASURE: CC50 (µM)
Write the number in µM without appending the unit.

[[record]]
compound = "Cc1cn([C@H]2C=C[C@@H](CO)O2)c(=O)[nH]c1=O [Example D4T, reference compound]"
measure = "CC50"
units_label = "µM"
readout_value = 321


Please turn your attention to the following entry.
Which value of CC50 has been reported for Cc1cn([C@H]2C[C@H](N=[N+]=[N-])[C@@H](CO)O2)c(=O)[nH]c1=O [AZT, reference compound] in the records? 187

* * *

# System: predendritic cells (DC-6)
# ASSAY EXPLANATION: dendritic cell differentiation test: FITC-Dextran take-up
# Type: cell-based, human
# CONDITIONS USED: 10 μg/ml, products redissolved in pyrogen-free water; % of dendritic cells
// reported Dextran % CD per item
Please reply with the bare figure in % and do not write the unit itself.

Recorded Dextran % CD, per entry:
[[record]]
compound_smiles = "CCCCCCCCCCCC(=O)O[C@H](CCCCCCCCCCC)CC(=O)N[C@H](CC(=O)NCCCN)C(=O)NCCC[C@H](CO)NC(=O)C[C@H](O)CCCCCCCCCCC"
measure = "Dextran % CD"
readout_value = 56.1

[[record]]
compound_smiles = "CCCCCCCCCCCC(=O)O[C@H](CCCCCCCCCCC)CC(=O)N[C@H](CC(=O)N[C@@H](CCCCN)C(=O)O)C(=O)NCCC[C@H](COC(=O)CCCCCN)NC(=O)C[C@H](O)CCCCCCCCCCC"
measure = "Dextran % CD"
readout_value = 92.2

[[record]]
compound_smiles = "CCCCCCCCCCCC(=O)O[C@H](CCCCCCCCCCC)CC(=O)N[C@H](CC(=O)O)C(=O)NCCC[C@H](COC(=O)CCC(=O)O)NC(=O)C[C@H](O)CCCCCCCCCCC"
measure = "Dextran % CD"
readout_value = 35.5

[[record]]
compound_smiles = "CCCCCCCCCCCC(=O)O[C@H](CCCCCCCCCCC)CC(=O)N[C@H](CC(=O)N[C@@H](CC(=O)O)C(=O)O)C(=O)NCCC[C@H](COC(=O)CCCCCN)NC(=O)C[C@H](O)CCCCCCCCCCC"
measure = "Dextran % CD"
readout_value = 22.0


Now examine the next entry.
Which Dextran % CD is reported for this molecule? CCCCCCCCCCCC(=O)O[C@H](CCCCCCCCCCC)CC(=O)N[C@H](CC(=O)O)C(=O)NCCC[C@H](COC(=O)CCCCCN)NC(=O)C[C@H](O)CCCCCCCCCCC 68.3

* * *

Each item that follows carries a reported 50% inhibition LPS.
# System: human peripheral blood mononuclear cells
# ASSAY EXPLANATION: inhibition of E. coli LPS-induced α TNF production in human peripheral blood mononuclear cells
# Format: cell-based
# CONDITIONS USED: product 10 μg/ml; LPS concentration at which α TNF production is 50% of control

# annotated cases, reported 50% inhibition LPS shown
[[record]]
compound = "CCCCCCCCCCCC(=O)O[C@H](CCCCCCCCCCC)CC(=O)N[C@H](CC(=O)O)C(=O)NCCC[C@H](COC(=O)CCCCCN)NC(=O)C[C@H](O)CCCCCCCCCCC [OM-197-MC-AC]"
readout_value = "0.88 µg/mL"

[[record]]
compound = "CCCCCCCCCCCC(=O)O[C@H](CCCCCCCCCCC)CC(=O)NC(CCOP(=O)(O)O)C(=O)NCCCC(COC(=O)CCCCCO)NC(=O)C[C@H](O)CCCCCCCCCCC (stereo partly drawn) [OM-197-FV8]"
readout_value = ">1 µg/mL"


Attention now shifts to the item below.
What value of 50% inhibition LPS has been recorded for this entry: CCCCCCCCCCCC(=O)O[C@H](CCCCCCCCCCC)CC(=O)N[C@@H](CCOP(=O)(O)O)C(=O)NCCC[C@H](COC(=O)CCCCCO)NC(=O)C[C@H](O)CCCCCCCCCCC [OM-197-MP-AC (S, R)] >1 µg/mL

* * *

# Test system: human peripheral blood mononuclear cells
# ASSAY EXPLANATION: inhibition of E. coli LPS-induced α TNF production in human peripheral blood mononuclear cells
# Assay type: cell-based
# CONDITIONS USED: product 10 μg/ml; LPS concentration at which α TNF production is 50% of control
MEASURE: 50% inhibition LPS (µg/mL)
# unit: µg/mL | format: bare number

[[record]]
compound_smiles = "CCCCCCCCCCCC(=O)O[C@H](CCCCCCCCCCC)CC(=O)N[C@H](CC(=O)O)C(=O)NCCC[C@H](COC(=O)CCC(=O)O)NC(=O)C[C@H](O)CCCCCCCCCCC"
readout_value = 1

[[record]]
compound_smiles = "CCCCCCCCCCCC(=O)O[C@H](CCCCCCCCCCC)CC(=O)N[C@H](CC(=O)O)C(=O)NCCC[C@H](COC(=O)CCCCCNC(=O)CCC(=O)OC[C@@H]1C=C[C@H](n2cc(C)c(=O)[nH]c2=O)O1)NC(=O)C[C@H](O)CCCCCCCCCCC"
readout_value = 0.64


# get_value(readout='50% inhibition LPS', item= CCCCCCCCCCCC(=O)O[C@H](CCCCCCCCCCC)CC(=O)N[C@H](CC(=O)N[C@@H](CCCCN)C(=O)O)C(=O)NCCC[C@H](CO)NC(=O)C[C@H](O)CCCCCCCCCCC ) 0.70
